Listing of entries alongside the reported Kd.
# tested target: RAR α (Homo sapiens)
# Sequence (P10276 whole entry): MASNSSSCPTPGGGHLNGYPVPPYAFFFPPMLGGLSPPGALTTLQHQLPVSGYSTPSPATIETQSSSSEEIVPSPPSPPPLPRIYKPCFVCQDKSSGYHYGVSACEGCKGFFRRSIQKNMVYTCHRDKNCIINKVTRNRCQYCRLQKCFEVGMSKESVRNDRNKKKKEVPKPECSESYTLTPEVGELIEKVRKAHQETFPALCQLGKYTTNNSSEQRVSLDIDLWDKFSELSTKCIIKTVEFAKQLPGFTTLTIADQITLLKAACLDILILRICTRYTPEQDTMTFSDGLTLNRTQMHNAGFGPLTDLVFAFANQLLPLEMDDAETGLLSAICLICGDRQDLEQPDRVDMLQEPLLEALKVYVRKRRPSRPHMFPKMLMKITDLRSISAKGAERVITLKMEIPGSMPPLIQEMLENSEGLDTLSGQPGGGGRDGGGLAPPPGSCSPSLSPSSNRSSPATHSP
# method summary: RAR α Kd
# Type: binding
# measurement setup: last item of cell EC50/(EFFICACY)/Kd
Answer with a number only, understood to be in µM.

{"chem smiles": "C/C(=C\\c1ccc(C#Cc2cccc(CN(C)C3CC3)c2)cc1)C(=O)O", "Kd, µM": 3.25}

# ---- query compound ----
What value of Kd has been reported for the following compound? CCOC(=O)C1=CCC(C)(C)c2cc(C#Cc3ccc(CC(=O)O)c(F)c3)ccc21 6.32

* * *

# tested target: RAR γ (Homo sapiens)
# Sequence (P13631 1-454): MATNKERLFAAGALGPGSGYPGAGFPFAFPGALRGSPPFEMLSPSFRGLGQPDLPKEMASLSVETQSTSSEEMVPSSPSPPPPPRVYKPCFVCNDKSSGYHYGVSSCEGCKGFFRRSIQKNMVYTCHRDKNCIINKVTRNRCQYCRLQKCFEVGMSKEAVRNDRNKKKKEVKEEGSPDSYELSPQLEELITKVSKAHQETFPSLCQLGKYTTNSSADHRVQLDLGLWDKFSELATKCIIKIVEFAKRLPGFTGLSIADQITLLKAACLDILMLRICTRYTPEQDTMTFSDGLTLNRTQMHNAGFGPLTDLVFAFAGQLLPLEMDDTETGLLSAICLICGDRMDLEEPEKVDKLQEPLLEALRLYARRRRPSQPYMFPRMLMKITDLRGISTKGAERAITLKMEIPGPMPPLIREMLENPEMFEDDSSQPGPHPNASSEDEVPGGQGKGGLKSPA
# method summary: RAR γ Kd
# Type: binding
# measurement setup: last item of cell EC50/(EFFICACY)/Kd
pKd: −log10 of the molar value.
metric name: pKd

{"compound": "CC(C(=O)O)c1ccc(C#Cc2cc(C3CC3)c3c(c2)C(C)(C)CC2(CC2)O3)cc1 (stereo not shown)", "test value": 5.46}

Suppose we examine the compound CC(C(=O)O)c1ccc(C#Cc2cc(C3CC3)c3c(c2)C(C)(C)CCC3N(C)C2CC2)cc1 (stereo not shown) ; what pKd value has been reported? < 5.00

Queued: CC(C(=O)O)c1ccc(C#Cc2cc(CN(C)C3CC3)c3c(c2)C(C)(C)CC(C)(C)O3)cc1 (stereo not shown) < 5.00

Try the compound C#Cc1cc(C#Cc2ccc(CC(=O)OCOC(C)=O)c(F)c2)cc(C(=O)OC(C)C)c1 < 5.00
